Values compiled from patent US20230272056A1.

target: T1, human LAP-TGFB1 Fc fusion (human); test: SPR pH 6.0, antigen captured on Fab 54BLH
T1 construct: also called human LAP-TGFβ1-Fc; human LAP-TGFβ-Fc isoform 1
T1 sequence (chain, as listed by the source limits assumed): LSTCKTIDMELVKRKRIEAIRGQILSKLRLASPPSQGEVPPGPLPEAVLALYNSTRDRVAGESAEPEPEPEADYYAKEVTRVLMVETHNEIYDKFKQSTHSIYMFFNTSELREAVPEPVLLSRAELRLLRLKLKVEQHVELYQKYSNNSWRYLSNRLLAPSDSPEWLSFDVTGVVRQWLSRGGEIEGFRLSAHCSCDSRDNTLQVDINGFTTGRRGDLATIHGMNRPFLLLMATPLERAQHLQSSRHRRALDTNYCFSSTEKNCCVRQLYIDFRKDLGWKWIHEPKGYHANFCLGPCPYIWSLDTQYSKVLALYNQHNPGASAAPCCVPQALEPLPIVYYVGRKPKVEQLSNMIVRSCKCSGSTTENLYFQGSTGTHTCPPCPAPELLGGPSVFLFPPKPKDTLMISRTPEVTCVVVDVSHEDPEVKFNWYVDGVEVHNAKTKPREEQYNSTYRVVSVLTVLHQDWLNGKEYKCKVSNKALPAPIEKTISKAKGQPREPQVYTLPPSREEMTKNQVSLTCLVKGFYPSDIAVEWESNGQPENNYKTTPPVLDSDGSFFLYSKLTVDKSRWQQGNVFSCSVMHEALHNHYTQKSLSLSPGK
endpoint.name: Kd (nM)

>>> quantitative_result("11BLM (antibody, human IgG1, kappa, L234A L235A, V domains shown, IgG1 L234A L235A D265S/kappa; also called 74BLH; 47BMD) VH: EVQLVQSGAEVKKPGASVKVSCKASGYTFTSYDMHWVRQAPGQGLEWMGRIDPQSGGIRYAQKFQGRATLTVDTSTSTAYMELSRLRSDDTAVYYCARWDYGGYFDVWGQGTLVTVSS VL: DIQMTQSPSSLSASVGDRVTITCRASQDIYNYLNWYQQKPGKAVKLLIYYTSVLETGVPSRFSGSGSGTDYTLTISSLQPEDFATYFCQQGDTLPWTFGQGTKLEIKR")
0.133
>>> quantitative_result("12BLM (antibody, human IgG1, kappa, L234A L235A, V domains shown, IgG1 L234A L235A D265S/kappa; also called 75BLH; 48BMD) VH: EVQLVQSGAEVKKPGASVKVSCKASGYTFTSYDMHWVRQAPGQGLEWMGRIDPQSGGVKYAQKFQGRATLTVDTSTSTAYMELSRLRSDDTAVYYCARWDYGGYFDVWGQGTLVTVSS VL: DIQMTQSPSSLSASVGDRVTITCRASQDIYNYLNWYQQKPGKAVKLLIYYTSVLETGVPSRFSGSGSGTDYTLTISSLQPEDFATYFCQQGDELPWTFGQGTKLEIKR")
0.136
>>> quantitative_result("54BLH (Fab, V domains shown, also called 06BLM Fab) VH: EVQLVQSGAEVKKPGASVKVSCKASGYTFTSYDMHWVRQAPGQGLEWMGRIDPQSGGIRYAQKFQGRATLTVDTSTSTAYMELSRLRSDDTAVYYCARWDYGGQFDVWGQGTLVTVSS VL: DIQMTQSPSSLSASVGDRVTITCRASQDIYNYLNWYQQKPGKAVKLLIYYTSILETGVPSRFSGSGSGTDYTLTISSLQPEDFATYFCQQGDTLPWTFGQGTKLEIK")
0.0217
>>> quantitative_result("18BLM (antibody, human IgG1, kappa, L234A L235A, V domains shown, IgG1 L234A L235A D265S/kappa; also called 81BLH; 54BMD) VH: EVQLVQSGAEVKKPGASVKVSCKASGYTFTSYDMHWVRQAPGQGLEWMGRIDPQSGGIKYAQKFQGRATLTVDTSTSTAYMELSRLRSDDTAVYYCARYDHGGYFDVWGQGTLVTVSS VL: DIQMTQSPSSLSASVGDRVTITCRASQDIYNYLNWYQQKPGKAVKLLIYYTSRLETGVPSRFSGSGSGTDYTLTISSLQPEDFATYFCQQGDTLPWTFGQGTKLEIKR")
9.11
>>> quantitative_result("64BLH (Fab, V domains shown, also called 16BLM Fab) VH: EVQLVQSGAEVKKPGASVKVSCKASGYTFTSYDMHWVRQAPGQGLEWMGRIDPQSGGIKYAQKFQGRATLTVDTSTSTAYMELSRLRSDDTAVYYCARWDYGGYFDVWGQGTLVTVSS VL: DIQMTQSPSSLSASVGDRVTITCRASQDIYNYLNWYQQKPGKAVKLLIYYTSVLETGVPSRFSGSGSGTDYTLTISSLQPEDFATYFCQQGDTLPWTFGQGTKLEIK")
0.182
